Data provenance: patent US9839642B2

# Target of assay: UniProt:P52699
# Sequence (P52699 19-246, looked up, species assumed): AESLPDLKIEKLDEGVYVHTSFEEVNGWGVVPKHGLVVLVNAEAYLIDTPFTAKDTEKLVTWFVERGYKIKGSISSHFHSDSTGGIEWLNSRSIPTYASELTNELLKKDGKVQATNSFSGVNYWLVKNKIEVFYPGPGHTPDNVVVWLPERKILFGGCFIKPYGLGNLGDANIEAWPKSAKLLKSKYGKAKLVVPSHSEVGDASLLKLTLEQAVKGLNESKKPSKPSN
# Protocol description: Enzyme activity: determination of IC50, fluorescence assay with CCF2-FA substrate
# Format: biochemical
# Run conditions: enzyme 2 pM, CCF2-FA 1.25 μM, 2 hours at 25° C.; read-out: IMP1 IC50
Measured attribute: IC50 (nM)
Provide only the numeric value, understood in nM.

// IC50 lookup, compound = CC(C)[C@H](C(=O)O)[C@H](Cc1ccc(N[C@@H]2CCNC2)nc1)c1nnn[nH]1 , result: 15000

----------
# Target of assay: VIM-1 (Pseudomonas aeruginosa)
# Protocol description: Enzyme activity: determination of IC50, fluorescence assay with CCF2-FA substrate
# Assay type: biochemical
# Run conditions: VIM-1 enzyme 30 pM, CCF2-FA 1.25 μM, 2 hours at 25° C.; read-out: VIM1 IC50
pIC50: −log10 of the molar value.
# binarize pIC50: threshold 8 inclusive, high side 1 (yes), low side 0 (no)

Would you please look over these solved cases?
CC(C)C[C@H](C(=O)O)[C@H](Cc1ccc(Oc2cccc(C3CCCNC3)c2)nc1)c1nn[nH]n1 (stereo partly shown) [Example 382] ... 0 (no)
CC(C)C[C@H](C(=O)O)[C@H](Cc1ccc(C2=CCNCC2)c(F)c1)c1nn[nH]n1 [Example 453, 2,2,2-trifluoroacetate] ... 1 (yes)
CCC[C@H](C(=O)O)[C@H](Cc1ccccc1-c1cccc(C(N)=O)c1)c1nn[nH]n1 [Example 399] ... 1 (yes)
CC(C)C[C@H](C(=O)O)[C@H](Cc1ccc(Oc2ccccn2)nc1)c1nn[nH]n1 [Example 391] ... 0 (no)

Continue with the compound presented below.
Q. # check: pIC50 of CC(C)C[C@H](C(=O)O)[C@H](Cc1ccc(Oc2ccccc2)nc1)c1nn[nH]n1 [Example 381] is greater than or equal to 8
A. 1 (yes)

----------
# Tested on: Klebsiella pneumoniae expressing VIM-1 (IHMA599644)
# Protocol description: Antibiotic potentiation activity: synergistic concentration (MITC95) with imipenem, growth by OD600
# Format: cell-based
# Run conditions: 95% inhibition of bacterial growth, strain IHMA599644
# binarize VIM1 KP599644 MITC95: threshold 20 µM inclusive, high side True, low side False

CCC[C@H](C(=O)O)[C@H](Cc1ccc(CN)cc1)c1nnn[nH]1 ... False
O=C(O)[C@@H](C1CCCC1)[C@H](Cc1ccc(C2=CCNC2)cn1)c1nnn[nH]1 ... False
CC(C)C[C@H](C(=O)O)[C@H](Cc1ccc(C(N)=O)cc1)c1nnn[nH]1 ... True
CC(C)[C@H](C(=O)O)[C@H](Cc1ccc(N[C@@H]2CCNC2)nc1)c1nnn[nH]1 ... True

Continue with the compound presented below.
Q. # check: VIM1 KP599644 MITC95 of CCC[C@H](C(=O)O)[C@H](Cc1ccc(-c2cnc(N(C)S(C)(=O)=O)nc2)cc1)c1nnn[nH]1 is greater than or equal to 20 µM
A. True

----------
# Target of assay: VIM-1 (Pseudomonas aeruginosa)
# Protocol description: Enzyme activity: determination of IC50, fluorescence assay with CCF2-FA substrate
# Assay type: biochemical
# Run conditions: VIM1 IC50, enzyme 30 pM, CCF2-FA 1.25 μM, 2 hours at 25° C.
Measured attribute: IC50 (nM)
Provide only the numeric value, understood in nM.

// IC50 lookup, molecule = CCCC[C@@H](C(=O)O)[C@@H](Cc1ccc(Br)cc1)c1nnn[nH]1 [Example 30] , result: 240
